// provenance: patent US9492423B2

Measurement Protocol: Clinical PK of Compound 1 in solution form, single oral dose and 2-hour IV infusion doses
Assay Setup: human, in vivo; humans, 2 mg/kg solution, from oral and IV AUC0-∞
Measure Name: bioavailability

# Smiles Entry, Endpoint Value
data = [
    ("CN(C)Cc1c(C(=O)NCCOc2ccc(C(=O)NO)cc2)oc2ccccc12", "~27%"),
]

====

Measurement Protocol: Clinical PK of Compound 1 in solution form, single oral dose and 2-hour IV infusion doses
Assay Setup: human, in vivo, 2 mg/kg; humans, administered as immediate release capsules or an oral solution

# Smiles Entry, bioavailability
measured = [
    ("CN(C)Cc1c(C(=O)NCCOc2ccc(C(=O)NO)cc2)oc2ccccc12", "~27%"),
]
